System: Klebsiella aerogenes
assay-comment: Antimicrobial activity against Enterobacter aerogenes ATCC 13048 after 18 to 20 hrs by broth dilution method
Format: functional
measure: MIC

Past entries and their recorded results:
CCCCCC[P+](CCCC)(CCCC)CCCC.[I-]
> 64 µg/mL
CCCC[P+](CCCC)(CCCC)CCCCCCOC.[Br-]
> 64 µg/mL
c1ccc(N(c2ccccc2)c2ccccc2)cc1
> 64 µg/mL
CCCCCC[P+](CCCC)(CCCC)CCCC.[Cl-]
> 64 µg/mL
CCCCCC[P+](CCCC)(CCCC)CCCC.[Br-]
> 64 µg/mL

Using known records, supply MIC for CCCC[P+](CCCC)(CCCC)CCCCCCOCc1ccc(N(c2ccccc2)c2ccccc2)cc1.[I-]
32 µg/mL

Using known records, supply MIC for CCCC[P+](CCCC)(CCCC)CCCCCCOCc1ccc(N(c2ccccc2)c2ccccc2)cc1.[Br-]
32 µg/mL

Using known records, supply MIC for CCCC[P+](CCCC)(CCCC)CCCCCCOCc1ccc(N(c2ccccc2)c2ccccc2)cc1.[Cl-]
16 µg/mL

====

Test system: Klebsiella pneumoniae
assay-comment: Antimicrobial activity against Klebsiella pneumoniae CIP 82.91 after 18 to 20 hrs by broth dilution method
Assay type: functional
Listing of entries alongside the reported MIC.

Past entries and their recorded results:
CCCCCC[P+](CCCC)(CCCC)CCCC.[I-]
> 64 µg/mL
CCCC[P+](CCCC)(CCCC)CCCCCCOCc1ccc(N(c2ccccc2)c2ccccc2)cc1.[Br-]
8 µg/mL
CCCCCC[P+](CCCC)(CCCC)CCCC.[Br-]
> 64 µg/mL

Using known records, supply MIC for CCCCCC[P+](CCCC)(CCCC)CCCC.[Cl-]
> 64 µg/mL

Using known records, supply MIC for c1ccc(N(c2ccccc2)c2ccccc2)cc1
> 64 µg/mL

Using known records, supply MIC for CCCC[P+](CCCC)(CCCC)CCCCCCOCc1ccc(N(c2ccccc2)c2ccccc2)cc1.[I-]
16 µg/mL

Using known records, supply MIC for CCCC[P+](CCCC)(CCCC)CCCCCCOC.[Br-]
> 64 µg/mL

Using known records, supply MIC for CCCC[P+](CCCC)(CCCC)CCCCCCOCc1ccc(N(c2ccccc2)c2ccccc2)cc1.[Cl-]
16 µg/mL

====

System: HepG2
assay-comment: Cytotoxicity against human HepG2 cells assessed as reduction in cell viability after 24 hrs by WST1 assay
Format: cell-based
details: HepG2, 24 h
measure: IC50

Past entries and their recorded results:
CCCC[P+](CCCC)(CCCC)CCCCCCOCc1ccc(N(c2ccccc2)c2ccccc2)cc1.[Cl-]
< 0.124 µg/mL
CCCCCC[P+](CCCC)(CCCC)CCCC.[Cl-]
5.42 µg/mL
CCCC[P+](CCCC)(CCCC)CCCCCCOC.[Br-]
0.712 µg/mL

Using known records, supply IC50 for CCCC[P+](CCCC)(CCCC)CCCCCCOCc1ccc(N(c2ccccc2)c2ccccc2)cc1.[Br-]
< 0.124 µg/mL

Using known records, supply IC50 for CCCC[P+](CCCC)(CCCC)CCCCCCOCc1ccc(N(c2ccccc2)c2ccccc2)cc1.[I-]
< 0.124 µg/mL

Using known records, supply IC50 for CCCCCC[P+](CCCC)(CCCC)CCCC.[Br-]
< 0.124 µg/mL

Using known records, supply IC50 for c1ccc(N(c2ccccc2)c2ccccc2)cc1
< 0.124 µg/mL

Using known records, supply IC50 for CCCCCC[P+](CCCC)(CCCC)CCCC.[I-]
0.189 µg/mL
